experiment: Permeability across dog MDCK-MDR cell membrane; type: ADME, cell-based, Canis lupus familiaris; conditions: MDCK-MDR1

>  <structure smiles>
C[C@@H](Oc1cccc2ncnc(Nc3ccc4c(cnn4Cc4nccs4)c3)c12)C(=O)N1CCOCC1

>  <Papp (×10⁻⁶ cm/s)>
10

$$$$

* * *

assay: Oral bioavailability in rat at 2 mg/kg; type: ADME, organism-based; settings: in vivo
Below, each of the compounds is paired with its reported bioavailability value.
value type: bioavailability (%)

>  <structure smiles>
C[C@@H](Oc1cccc2ncnc(Nc3ccc4c(cnn4Cc4ccccn4)c3)c12)C(=O)N(C)C

>  <value type>
bioavailability

>  <uom>
%

>  <numeric result>
36

$$$$
>  <structure smiles>
C[C@@H](Oc1cccc2ncnc(Nc3ccc4c(cnn4Cc4nccs4)c3)c12)C(=O)N1CCOCC1

>  <value type>
bioavailability

>  <uom>
%

>  <numeric result>
50

$$$$

* * *

assay: Solubility in aqueous phosphate buffer at pH 7.4 after 24 hrs; format: physicochemical
value type: log10(solubility at 24 h) (log10 of the value in µM)

>  <structure smiles>
C[C@@H](Oc1cccc2ncnc(Nc3ccc4c(cnn4Cc4nccs4)c3)c12)C(=O)N1CCOCC1

>  <log10(solubility at 24 h)>
2.00

$$$$
>  <structure smiles>
C[C@@H](Oc1cccc2ncnc(Nc3ccc4c(cnn4Cc4cscn4)c3)c12)C(=O)N(C)C

>  <log10(solubility at 24 h)>
1.64

$$$$
>  <structure smiles>
C[C@@H](Oc1cccc2ncnc(Nc3ccc4c(cnn4Cc4nccs4)c3)c12)C(=O)N(C)C

>  <log10(solubility at 24 h)>
1.46

$$$$
>  <structure smiles>
C[C@@H](Oc1cccc2ncnc(Nc3ccc4c(cnn4Cc4cccc(F)c4)c3)c12)C(=O)N(C)C

>  <log10(solubility at 24 h)>
0.48

$$$$
>  <structure smiles>
C[C@@H](Oc1cccc2ncnc(Nc3ccc4c(cnn4Cc4ccccn4)c3)c12)C(N)=O

>  <log10(solubility at 24 h)>
0.48

$$$$
>  <structure smiles>
C[C@@H](Oc1cccc2ncnc(Nc3ccc4c(cnn4Cc4ccccn4)c3)c12)C(=O)N(C)C

>  <log10(solubility at 24 h)>
2.43

$$$$
>  <structure smiles>
CNC(=O)[C@@H](C)Oc1cccc2ncnc(Nc3ccc4c(cnn4Cc4ccccn4)c3)c12

>  <log10(solubility at 24 h)>
0.60

$$$$

* * *

test: Volume of distribution at steady state in rat at 1 mg/kg, iv and 2 mg/kg, po; format: ADME, organism-based; details: in vivo, read-out: Vdss

>  <structure smiles>
C[C@@H](Oc1cccc2ncnc(Nc3ccc4c(cnn4Cc4ccccn4)c3)c12)C(=O)N(C)C

>  <uom>
L/kg

>  <Vd>
2.1

$$$$
>  <structure smiles>
C[C@@H](Oc1cccc2ncnc(Nc3ccc4c(cnn4Cc4nccs4)c3)c12)C(=O)N1CCOCC1

>  <uom>
L/kg

>  <Vd>
2

$$$$

* * *

assay: Volume of distribution at steady state in dog at 1 mg/kg, iv and 2 mg/kg, po; type: ADME, organism-based, Canis lupus familiaris; conditions: in vivo, read-out: Vdss
Reported Vd values are given for each entry in this list.

>  <structure smiles>
C[C@@H](Oc1cccc2ncnc(Nc3ccc4c(cnn4Cc4nccs4)c3)c12)C(=O)N1CCOCC1

>  <Vd, L/kg>
3.1

$$$$
>  <structure smiles>
C[C@@H](Oc1cccc2ncnc(Nc3ccc4c(cnn4Cc4ccccn4)c3)c12)C(=O)N(C)C

>  <Vd, L/kg>
2.3

$$$$

* * *

test: Oral bioavailability in dog at 2 mg/kg, po; assay type: ADME, organism-based, Canis lupus familiaris; details: in vivo

>  <structure smiles>
C[C@@H](Oc1cccc2ncnc(Nc3ccc4c(cnn4Cc4nccs4)c3)c12)C(=O)N1CCOCC1

>  <bioavailability, %>
36

$$$$
>  <structure smiles>
C[C@@H](Oc1cccc2ncnc(Nc3ccc4c(cnn4Cc4ccccn4)c3)c12)C(=O)N(C)C

>  <bioavailability, %>
40

$$$$
